tested on: Plasma; assay: Stability in human plasma assessed as compound stability time by UPLC-MS analysis; assay type: ADME, cell-free
Listed below: Stability values for each entry.

Answered cases to consult:
| givenSmiles | Stability |
| --- | --- |
| COCCOc1cc2ncnc(-n3nc(-c4ccccn4)nc3N)c2cc1OCCOC | > 48 h |
| COc1cc2ncnc(-n3nc(-c4ccccn4)nc3N)c2cc1OCCCNC(=O)OC(C)C | > 24 h |
| COCCOc1cc2c(-n3nc(-c4ccccn4)nc3N)ncnc2cc1OC | > 48 h |

Now take the following compound into account.
I would be grateful if you could share the reported Stability for COc1cc2ncnc(-n3nc(-c4ccccn4)nc3N)c2cc1OC . > 48 h
